Provenance of the data: PubChem BioAssay

// reported composite z-score for each item listed
- Tested on: Sonic hedgehog protein (Shh)
- Procedure Details: small-molecule binders of Shh protein, primary screen, biochemical, small-molecule microarray, 635/667 nm fluorescence (AID 1151);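 note: Shh protein binding to compounds spotted on small-molecule microarray slides; score combines spot fluorescence intensity with signal-to-noise across triplicate slides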
- Condition Set: small-molecule microarray binding, 635 nm fluorescence; higher = more signal

{"Compound": "COc1ccc(O[C@H]2C=C[C@@H](c3ccccc3)O[C@@H]2COC(=O)CCC(C)=NOC(C)CN2CCCc3nc(C)c(C)cc32)cc1 (some centres not stated)", "composite z-score": 1.01}
{"Compound": "O=C1C[C@@H](O)[C@@H](O)[C@@H]2[C@@H]3C(=O)N(C[C@@H]4CCCO4)C(=O)[C@@H]3CC[C@@H]12", "composite z-score": 0.678}
{"Compound": "CCOC(=O)NN=C1C[C@@H](O)[C@@H](O)[C@@H]2[C@@H]3C(=O)N(c4cccc(Oc5ccccc5)c4)C(=O)[C@@H]3CC[C@H]12", "composite z-score": 0.206}
{"Compound": "C#CCCCON=C1C[C@@H](O)[C@@H](O)[C@@H]2[C@@H]3C(=O)N(CCC(=O)OCC)C(=O)[C@@H]3CC[C@H]12", "composite z-score": 1.65}
{"Compound": "COc1ccc(O[C@@H]2[C@H](O)CO[C@H]2C=Cc2ccccc2)cc1", "composite z-score": 0.253}
{"Compound": "C#CCCCON=C1C[C@@H](O)[C@@H](O)[C@@H]2[C@@H]3C(=O)N(c4cccc(Oc5ccccc5)c4)C(=O)[C@@H]3CC[C@H]12", "composite z-score": -1.01}
{"Compound": "CO[C@H]1COC(=O)CCC[C@@H](C)[C@H](OC)COC(=O)[C@@H](C)NC(=O)CC=C[C@@H]1C", "composite z-score": 2.1}

* * *

// reported z-score for each item listed
- Procedure Details: osmotic lysis modulators in infected erythrocytes, primary screen, PSAC antagonist project, cell-based, P. falciparum Indochina, OD700, 3 h (AID 1156)
- Condition Set: higher = more signal, called active from +8 up or from −8 down

{"Smiles Text": "CCOC(=O)NN=C1C[C@@H](O)[C@@H](O)[C@@H]2[C@@H]3C(=O)N(Cc4ccccc4)C(=O)[C@@H]3CC[C@H]12", "z-score": -0.0654}
{"Smiles Text": "CCc1cc2c(nc1CC)CCN(CCC(C)=NO[C@@H](C)c1cn([C@H](CO)Cc3ccccc3)nn1)C2", "z-score": -0.0919}
{"Smiles Text": "C#CCCCON=C1C[C@@H](O)[C@@H](O)[C@@H]2[C@@H]3C(=O)N(c4ccc(F)cc4F)C(=O)[C@@H]3CC[C@@H]12", "z-score": 0.642}
{"Smiles Text": "CO[C@H]1COC(=O)CC=C[C@@H](C)[C@H](OC)COC(=O)CCC[C@@H]1C", "z-score": -0.518}

* * *

- Target Desc: Neurogenic locus notch homolog protein 3 (Homo sapiens) (UniProt Q9UM47)
- Sequence (Q9UM47 whole entry, looked up): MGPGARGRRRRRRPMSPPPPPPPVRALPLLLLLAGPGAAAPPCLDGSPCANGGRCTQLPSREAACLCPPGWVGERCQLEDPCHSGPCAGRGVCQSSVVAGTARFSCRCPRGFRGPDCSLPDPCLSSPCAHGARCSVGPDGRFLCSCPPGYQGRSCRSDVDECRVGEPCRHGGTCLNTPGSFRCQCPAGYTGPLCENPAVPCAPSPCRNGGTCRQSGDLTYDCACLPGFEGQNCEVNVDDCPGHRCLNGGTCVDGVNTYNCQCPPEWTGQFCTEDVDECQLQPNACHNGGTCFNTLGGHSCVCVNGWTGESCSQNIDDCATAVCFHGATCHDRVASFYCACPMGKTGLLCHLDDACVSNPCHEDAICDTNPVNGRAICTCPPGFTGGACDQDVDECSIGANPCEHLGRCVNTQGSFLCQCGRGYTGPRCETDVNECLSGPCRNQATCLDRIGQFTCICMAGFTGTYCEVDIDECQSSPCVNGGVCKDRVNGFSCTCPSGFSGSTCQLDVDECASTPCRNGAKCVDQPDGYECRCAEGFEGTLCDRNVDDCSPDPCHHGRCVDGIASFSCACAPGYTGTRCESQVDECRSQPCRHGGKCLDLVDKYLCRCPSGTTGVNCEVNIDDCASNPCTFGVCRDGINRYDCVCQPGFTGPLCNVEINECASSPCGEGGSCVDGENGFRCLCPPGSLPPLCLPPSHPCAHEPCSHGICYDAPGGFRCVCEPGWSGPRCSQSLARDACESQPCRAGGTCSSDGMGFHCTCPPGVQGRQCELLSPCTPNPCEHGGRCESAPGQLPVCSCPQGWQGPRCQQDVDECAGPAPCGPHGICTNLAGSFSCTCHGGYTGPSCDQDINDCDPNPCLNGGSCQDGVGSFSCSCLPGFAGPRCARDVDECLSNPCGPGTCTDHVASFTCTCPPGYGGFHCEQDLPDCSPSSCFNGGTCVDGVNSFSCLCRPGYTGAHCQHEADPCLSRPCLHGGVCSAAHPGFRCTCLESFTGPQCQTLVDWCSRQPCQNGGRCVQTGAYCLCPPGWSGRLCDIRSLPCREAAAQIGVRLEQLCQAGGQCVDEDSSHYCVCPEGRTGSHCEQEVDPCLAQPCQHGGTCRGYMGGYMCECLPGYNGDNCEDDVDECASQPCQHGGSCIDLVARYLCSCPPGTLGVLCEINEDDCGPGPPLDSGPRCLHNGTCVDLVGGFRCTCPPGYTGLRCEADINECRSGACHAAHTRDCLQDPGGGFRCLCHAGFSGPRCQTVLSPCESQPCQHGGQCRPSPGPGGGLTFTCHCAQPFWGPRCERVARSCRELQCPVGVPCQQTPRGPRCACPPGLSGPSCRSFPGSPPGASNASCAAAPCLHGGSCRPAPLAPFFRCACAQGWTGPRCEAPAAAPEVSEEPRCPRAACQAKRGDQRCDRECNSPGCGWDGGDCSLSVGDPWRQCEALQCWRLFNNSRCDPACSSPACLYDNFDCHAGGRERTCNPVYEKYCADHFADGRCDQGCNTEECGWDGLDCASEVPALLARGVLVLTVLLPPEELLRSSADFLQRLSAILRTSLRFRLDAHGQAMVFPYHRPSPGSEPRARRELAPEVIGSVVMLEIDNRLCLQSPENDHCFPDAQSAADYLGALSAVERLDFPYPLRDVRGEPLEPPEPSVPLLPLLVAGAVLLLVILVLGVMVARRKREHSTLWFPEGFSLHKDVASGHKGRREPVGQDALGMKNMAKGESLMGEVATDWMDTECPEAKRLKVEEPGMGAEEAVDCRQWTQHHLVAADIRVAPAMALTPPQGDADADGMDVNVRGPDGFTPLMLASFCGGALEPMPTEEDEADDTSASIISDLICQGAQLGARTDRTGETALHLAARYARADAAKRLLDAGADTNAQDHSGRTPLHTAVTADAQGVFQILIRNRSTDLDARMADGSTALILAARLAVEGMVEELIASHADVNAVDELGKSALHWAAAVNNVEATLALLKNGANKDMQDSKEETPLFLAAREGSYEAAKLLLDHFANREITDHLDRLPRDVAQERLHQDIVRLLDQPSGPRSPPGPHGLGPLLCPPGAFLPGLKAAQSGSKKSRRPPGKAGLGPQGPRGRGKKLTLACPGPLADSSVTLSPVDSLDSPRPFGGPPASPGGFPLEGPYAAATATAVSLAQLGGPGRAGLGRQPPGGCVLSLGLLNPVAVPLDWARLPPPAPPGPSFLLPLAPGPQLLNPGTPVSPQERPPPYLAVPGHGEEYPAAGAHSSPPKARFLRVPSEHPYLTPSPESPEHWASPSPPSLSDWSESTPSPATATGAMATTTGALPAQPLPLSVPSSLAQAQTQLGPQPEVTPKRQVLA
- Procedure Details: NOTCH3 binders on small-molecule microarray, primary screen, biochemical, 635/667 nm fluorescence (AID 1096)
- Condition Set: NOTCH3 binding, 635 nm fluorescence, higher = more signal
// not satisfied strictly below -0.09 in composite z-score; satisfied otherwise

{"Molecule": "CCOC(=O)[C@H](Cc1ccccc1)NC(=O)CCC1CC(OC(=O)NCCc2ccc(F)cc2)CC2(CCCC(COC(=O)NCCc3ccc(Cl)cc3)O2)O1 (stereo not given in full)", "Discrete Label": "satisfied"}
{"Molecule": "Cc1ccc(S(=O)(=O)NC(CCc2ccccc2)CC(=O)C(C)(C)C)cc1 (stereo not given)", "Discrete Label": "satisfied"}
{"Molecule": "CCOC(=O)[C@H](CC(C)C)NC(=O)CCC1CC(OC(=O)NCCc2ccc(F)cc2)CC2(CCCC(COC(=O)NCCc3ccc(Cl)cc3)O2)O1 (stereo not given in full)", "Discrete Label": "satisfied"}
{"Molecule": "COc1ccc(O[C@H]2C=C[C@@H](c3ccccc3)O[C@@H]2CON=C(C)C)cc1", "Discrete Label": "not satisfied"}
